test system: Mus musculus; experiment: Inhibition of TNF production in orally dosed mouse model; type: functional; details: po
VALUE KIND: ED50 (mg/kg)
Give a bare numeral; the unit mg/kg is implied.

Provide value of ED50 for this record tested with Mus musculus: `COC(=O)c1c(-c2ccc(F)cc2)c(-c2ccncc2)c(N2CCNCC2)n1C`
7.5

Provide value of ED50 for this record tested with Mus musculus: `Cn1c(C#N)c(-c2ccc(F)cc2)c(-c2ccncc2)c1N1CCNCC1`
5

Provide value of ED50 for this record tested with Mus musculus: `CC(=O)N1CCN(c2c(-c3ccncc3)c(-c3ccc(F)cc3)c(C#N)n2C)CC1`
0.5

Provide value of ED50 for this record tested with Mus musculus: `COC(=O)c1c(-c2ccc(F)cc2)c(-c2ccncc2)c(N(C)CCN2CCOCC2)n1C`
3
